Biological target: human GLP-1R (GLP-1 receptor) (human, UniProt P43220 24-463)
Assay: cell-based or functional assay
*1 amine or outer side, *2 acyl side, *3 side chain or, on linkers, in order; H or OH if unused. Where no end group is shown, it is not given here. Side-chain parts run from the residue outwards. [ ]: non-standard residue; d: D form. The star is where a group is joined. C18 diacid = O=C(O)CCCCCCCCCCCCCCCCC(=O)*; γGlu = O=C(O)[C@H](CCC(=O)[*:2])N[*:1]; AEEA = NCCOCCOCC(=O)O; Aib = CC(C)(N)C(=O)O
Provide the recorded cAMP assay: Efficacy GLP-1R for the entries that follow.
Answer format reminder: number followed by unit.

Input HXDGTFISDYSTXLDNLAARDFINWLIQTKITK (Aib at 2 and 13; K(C10) at 33 (C-terminal residue); C-terminal amide (-NH2)) [Compound no. 65] . Output cAMP assay: Efficacy GLP-1R: 76%

Input HADGTFISDYSTILDNLAARDFINWLIQTKGKK([AEEA-AEEA-γGlu-C18 diacid]) (also: K33: γGlu-C18-diacid linker 2xAEEA-γGlu) [Compound no. 60] . Output cAMP assay: Efficacy GLP-1R: 105%

Input HADGTFISDYSTILDK([AEEA-AEEA-γGlu-C18 diacid])LAARDFINWLIQTKGKK [Compound no. 64] . Output cAMP assay: Efficacy GLP-1R: 85%

Input HADGTFISDYST[Aib]LDK([AEEA-AEEA-γGlu-C18 diacid])LAARDFINWLIQTKGKK [Compound no. 62] . Output cAMP assay: Efficacy GLP-1R: 85%

Input HXDGTFISDYSTILDNLAARDFINWLIQTKITK (Aib at 2; K(C10) at 33 (C-terminal residue); C-terminus -OH) [Compound no. 63] . Output cAMP assay: Efficacy GLP-1R: 84%
